Here, each record is paired with measured TGI data.
Test system: DMS 114 small cell lung
Test: NCI tumour cell line growth inhibition, 48 h

Take a look at these entries with their results.
MOLECULE | TARGET_SYSTEM | READOUT | OBS_VALUE
C=CCCN1CCc2c([nH]c3ccccc23)C1C(=O)O (stereo unspecified) | DMS 114 small cell lung | TGI | > 100 µM
CC(C)(C)c1ccc2c(c1)S(=O)(=O)Nc1ccccc1NS(=O)(=O)c1cc(C(C)(C)C)ccc1OCCOCCOCCO2 | DMS 114 small cell lung | TGI | > 100 µM
O=C1OC(c2ccccc2)=N/C1=C\c1cccc2ccccc12 | DMS 114 small cell lung | TGI | > 100 µM
Cc1cn(C2CC(O)C(CO)O2)c(=O)n2nnnc12 (stereo unspecified) | DMS 114 small cell lung | TGI | > 100 µM
Cc1cccc(NC(=O)C(=O)C(C(=O)c2ccc3ccccc3c2)C2OC(=O)c3ccccc32)c1C (stereo unspecified) | DMS 114 small cell lung | TGI | 35.2 µM

Input line: Name the recorded TGI of the molecule listed here: Cn1c(=O)c(C(c2ccc([N+](=O)[O-])cc2)c2c(O)c3ccccc3n(C)c2=O)cc2ccccc21 (stereo unspecified)
Output line: > 100 µM

Input line: Name the recorded TGI of the molecule listed here: COC(=O)C1=C(C)N(NC(=O)OC(C)(C)C)C(=O)C1=P(c1ccccc1)(c1ccccc1)c1ccccc1
Output line: > 100 µM

Input line: Name the recorded TGI of the molecule listed here: COc1cc(C=C2C(=O)NC(=O)NC2=O)cc(OC)c1OC
Output line: > 100 µM

Input line: Name the recorded TGI of the molecule listed here: COC1(OC)C2(Cl)C(Cl)=C(Cl)C1(Cl)C1C=CC=CC12 (stereo unspecified)
Output line: > 100 µM

Input line: Name the recorded TGI of the molecule listed here: COc1cc(C(C)O)c[n+](CCc2c[nH]c3ccccc23)c1 (stereo unspecified)
Output line: > 100 µM

Input line: Name the recorded TGI of the molecule listed here: CC(=O)[O-].CCN(CC)c1ccc(C=NCCN=Cc2ccc(N(CC)CC)cc2[O-])c([O-])c1.[Mn+3]
Output line: 35.8 µM

Input line: Name the recorded TGI of the molecule listed here: NC(N)=N/N=C/c1c[nH]c2ccccc12
Output line: > 100 µM

----------
System: IGROV1 ovarian
Test: NCI tumour cell line growth inhibition, 48 h
READOUT: TGI

COMPOUND | READOUT | OBS_VALUE
C[C@@]12CC=C3c4nc(Nc5cccc(O)c5)sc4CC[C@]3(C)[C@H]1CC[C@]1(C)C(=O)CC[C@@H]21 | TGI | 6.04 µM

Input line: Name the recorded TGI of the compound listed here: CC1(C)SCc2nc3ncccc3n21
Output line: > 100 µM

Input line: Name the recorded TGI of the compound listed here: CCOC(=O)CC1(C(=O)OCC)c2[nH]c3ccccc3c2CCN1Cc1ccccc1 (stereo not given)
Output line: 52.9 µM

----------
Tested on: CAKI-1 renal
Assay: NCI tumour cell line growth inhibition, 48 h
READOUT: TGI (µM)
Report as a plain number; the unit µM is understood.

MOLECULE | TGI (µM)
C=C1C(=O)O[C@@H]2/C=C(\C)CC/C=C(/COC(C)=O)C[C@@H](OC(C)=O)[C@@H]12 | 20.2
CCC[CH2][Sn]1([CH2]CCC)[O]CC(CN2CCCC2)[O]1 (stereo not given) | 24.5

Input line: Name the recorded TGI of the molecule listed here: CCOC(=O)/C=C(/C(=O)OCC)n1ccc(=O)n(Cc2cn(COCCOC(C)=O)nn2)c1=O
Output line: 14

Input line: Name the recorded TGI of the molecule listed here: COc1ccccc1/C=C1\SC(=S)N(/C=C2\C(=O)Oc3ccccc3C2=O)C1=O
Output line: 3.23

----------
Tested on: M14 melanoma
Experiment: NCI tumour cell line growth inhibition, 48 h
Here, each record is paired with measured TGI data.

COMPOUND | READOUT | OBS_VALUE
c1cc(CNC23CC4CC(CC(C4)C2)C3)cc(C[N+](Cc2cccc(CNC34CC5CC(CC(C5)C3)C4)c2)(Cc2cccc(CNC34CC5CC(CC(C5)C3)C4)c2)Cc2cccc(CNC34CC5CC(CC(C5)C3)C4)c2)c1 (stereo not drawn) | TGI | 8.69 µM
C[C@@H]1CC(=O)C2CCCC1C2=O (stereo partly drawn) | TGI | > 100 µM
CC(=O)OCC12C(=O)C[C@@H](C)C3(CC(c4ccoc4)OC3=O)C1CCC(OC(C)=O)C21CO1 (stereo partly drawn) | TGI | > 100 µM
CCN(CC)C(=O)Cn1c(C)cc2ccccc21 | TGI | > 100 µM
NN/C(=N\S(=O)(=O)c1cc2ccccc2s1)Nc1ccc(Cl)cc1 | TGI | 37.9 µM
C[C@@]12CC=C3c4nc(Nc5cccc(O)c5)sc4CC[C@]3(C)[C@H]1CC[C@]1(C)C(=O)CC[C@@H]21 | TGI | > 100 µM

Input line: Name the recorded TGI of the compound listed here: COc1cc(C(=O)N(Cc2cccnc2)C(=S)N(Cc2cccnc2)C(=O)c2cc(OC)c(OC)c(OC)c2)cc(OC)c1OC
Output line: > 100 µM

Input line: Name the recorded TGI of the compound listed here: Cc1ccc(N=Nc2c(O)ccc3cc(S(=O)(=O)O)cc(S(=O)(=O)O)c23)cc1
Output line: > 100 µM

----------
Here, each record is paired with measured TGI data.
System: SNB-75 CNS
Assay: NCI tumour cell line growth inhibition, 48 h

Input line: Name the recorded TGI of the compound listed here: O=C(N/N=C/c1ccc(Cl)cc1)c1ccc(C(F)(F)F)nc1Nc1cccc(C(F)(F)F)c1
Output line: 13.4 µM

Input line: Name the recorded TGI of the compound listed here: O=C(N/N=C\c1cccc2c([N+](=O)[O-])cccc12)Nc1ccccc1
Output line: > 100 µM

Input line: Name the recorded TGI of the compound listed here: CC1NC(=O)CC(c2ccccc2)N(N=O)C1c1ccccc1 (stereo unspecified)
Output line: > 65.2 µM

Input line: Name the recorded TGI of the compound listed here: C[C@@]12CC=C3c4nc(Nc5cccc(O)c5)sc4CC[C@]3(C)[C@H]1CC[C@]1(C)C(=O)CC[C@@H]21
Output line: > 100 µM

Input line: Name the recorded TGI of the compound listed here: COc1cc(C(C)O)c[n+](CCc2c[nH]c3ccccc23)c1 (stereo unspecified)
Output line: > 100 µM

Input line: Name the recorded TGI of the compound listed here: O=Cc1c(C(=O)O)[nH]c(=O)[nH]c1=O
Output line: > 100 µM

----------
Test system: SN12C renal
Assay: NCI tumour cell line growth inhibition, 48 h; in the data active = GI50 below about 0.43 µM; inactive = the rest
The reply should be one of these categories: TRUE = active, FALSE = inactive

MOLECULE | CLASS_ASSIGNMENT
CN1C/C=C\CCOc2cccc(c2)-c2ccnc(n2)Nc2cccc(c2)C1 | TRUE
COc1ccc(-c2n[nH]nc2-c2cc(OC)c(OC)c(OC)c2)cc1 | TRUE
COc1cccc2c1C(=O)c1c(O)c3c(c(O)c1C2=O)C[C@@](O)(C(C)=O)C[C@@H]3OC1OC(C)C(O)C(N)C1Br (some centres not stated) | TRUE

Input line: Which outcome was entered for the molecule CN(C)C(=O)c1cc2cnc(Nc3ccc(-c4csc5c(=S)cc(N6CCOCC6)oc45)cc3)nc2n1C1CCCC1 in this test?
Output line: TRUE

Input line: Which outcome was entered for the molecule CNc1ccc(C(=O)CC(O)CCC(C)C2OC(=O)CC(O)CC(=O)CC(O)CC(O)CC(O)CC(O)CC3(O)CC(O)C(C(=O)OC)C(CC(O[C@@H]4O[C@H](C)[C@@H](O)[C@H](N)[C@@H]4O)/C=C/C=C/C=C/C=C/C=C/C=C/C=C/C2C)O3)cc1 (some centres not stated) in this test?
Output line: FALSE

Input line: Which outcome was entered for the molecule NS(=O)(=O)c1ccc(N=Nc2c(O)[nH]c3ccc(-c4cnco4)cc23)cc1 in this test?
Output line: FALSE

Input line: Which outcome was entered for the molecule COc1cc2c3c(n(CCCNC(=O)OCC4c5ccccc5-c5ccccc54)c(=O)c2cc1OC)-c1cc2c(cc1/C3=C\CCNC(=O)OCC1c3ccccc3-c3ccccc31)OCO2 in this test?
Output line: FALSE

----------
Tested on: MALME-3M melanoma
Assay: NCI tumour cell line growth inhibition, 48 h
READOUT: TGI

Take a look at these entries with their results.
COMPOUND | OBS_VALUE
O=C(N/N=C\c1cccc2c([N+](=O)[O-])cccc12)Nc1ccccc1 | 38 µM
CC1(C)SCc2nc3ncccc3n21 | > 100 µM
COC1=C(C)C(=O)c2c(c(COC(N)=O)c3n2CC2C3N2C)C1=O (stereo not given) | 0.164 µM

Next item in the queue.
Input line: Name the recorded TGI of the compound listed here: COc1ccccc1CCc1cc(OC)c(OC)c(OC)c1
Output line: > 100 µM
